Item-by-item account of ED50
# Assay: mouse writhing assay (acetic acid), analgesic activity
# Type: in vivo, mouse (Cox standard males)
# Protocol Conditions: sc; mouse, subcutaneous; dose giving significant peak analgesic effect in 50 percent of test animals; read-out: ED50, Mouse Writhing, Subcutaneous
Structures can show the parent of a compound that is named as a salt.
The answer is to be given in mg/kg; state only the numeric part.

Sample answers from the record:
# Molecule, Unit Descriptor, ED50
rows = [
    ("CC1OCC(C(c2ccccc2)N(C)C)CO1 (stereo not drawn)", "mg/kg", 3.6),
    ("CCC1OCC(C(c2ccccc2)N(C)C)CO1 (stereo not drawn)", "mg/kg", 19),
    ("Cc1ccc(C(C2COCOC2)N(C)C)cc1.O=C(O)/C=C\\C(=O)O (stereo not drawn) [dl 4-CH3 --C6 H4, H, Maleate]", "mg/kg", 20),
    ("CN(C)C(c1ccccc1)C1COCOC1.Cl (stereo not drawn) [dl C6 H5, H, HCl]", "mg/kg", 15),
    ("CN(C)C(c1ccccc1)C1COCOC1 (single isomer, unassigned) [l C6 H5, H, HCl]", "mg/kg", 6),
]

Next item in the queue.
What measured ED50 goes with CN(C)C(c1cccnc1)C1COCOC1.Cl.Cl (stereo not drawn) [dl 3-pyridyl, H, 2HCl] ? 10

* * *

# Assay: mouse writhing assay (acetic acid), analgesic activity
# Format: in vivo, mouse (Cox standard males)
# Protocol Conditions: mouse, subcutaneous; time after dosing of maximum analgesic response
Where a name gives a salt, the structure may show the parent alone.
Metric Name: PT (peak analgesic time), Mouse Writhing, Subcutaneous (min)
The answer is to be given in min; state only the numeric part.

Sample answers from the record:
# Compound, Unit Descriptor, Recorded Number
measured = [
    ("CN(C)C(c1ccccc1)C1COCOC1 (single isomer, unassigned) [l C6 H5, H, HCl]", "min", 15),
    ("CC1OCC(C(c2ccccc2)N(C)C)CO1 (stereo not drawn)", "min", 15),
    ("CN(C)C(c1ccccc1)C1COCOC1.Cl (stereo not drawn) [dl C6 H5, H, HCl]", "min", 15),
    ("CCC1OCC(C(c2ccccc2)N(C)C)CO1 (stereo not drawn)", "min", 75),
    ("CN(C)C(c1cccnc1)C1COCOC1.Cl.Cl (stereo not drawn) [dl 3-pyridyl, H, 2HCl]", "min", 30),
]

Next item in the queue.
What measured PT (peak analgesic time), Mouse Writhing, Subcutaneous goes with Cc1ccc(C(C2COCOC2)N(C)C)cc1.O=C(O)/C=C\C(=O)O (stereo not drawn) [dl 4-CH3 --C6 H4, H, Maleate] ? 30

Source: patent US3962269A
